Source: patent US20260132129A1

# target or test system: PI3Kα H1047R (T47D cells) (Homo sapiens, UniProt P42336, H1047R)
# Construct: endogenous in cells; host or cells: T47D cells
# Sequence (P42336 whole entry H1047R): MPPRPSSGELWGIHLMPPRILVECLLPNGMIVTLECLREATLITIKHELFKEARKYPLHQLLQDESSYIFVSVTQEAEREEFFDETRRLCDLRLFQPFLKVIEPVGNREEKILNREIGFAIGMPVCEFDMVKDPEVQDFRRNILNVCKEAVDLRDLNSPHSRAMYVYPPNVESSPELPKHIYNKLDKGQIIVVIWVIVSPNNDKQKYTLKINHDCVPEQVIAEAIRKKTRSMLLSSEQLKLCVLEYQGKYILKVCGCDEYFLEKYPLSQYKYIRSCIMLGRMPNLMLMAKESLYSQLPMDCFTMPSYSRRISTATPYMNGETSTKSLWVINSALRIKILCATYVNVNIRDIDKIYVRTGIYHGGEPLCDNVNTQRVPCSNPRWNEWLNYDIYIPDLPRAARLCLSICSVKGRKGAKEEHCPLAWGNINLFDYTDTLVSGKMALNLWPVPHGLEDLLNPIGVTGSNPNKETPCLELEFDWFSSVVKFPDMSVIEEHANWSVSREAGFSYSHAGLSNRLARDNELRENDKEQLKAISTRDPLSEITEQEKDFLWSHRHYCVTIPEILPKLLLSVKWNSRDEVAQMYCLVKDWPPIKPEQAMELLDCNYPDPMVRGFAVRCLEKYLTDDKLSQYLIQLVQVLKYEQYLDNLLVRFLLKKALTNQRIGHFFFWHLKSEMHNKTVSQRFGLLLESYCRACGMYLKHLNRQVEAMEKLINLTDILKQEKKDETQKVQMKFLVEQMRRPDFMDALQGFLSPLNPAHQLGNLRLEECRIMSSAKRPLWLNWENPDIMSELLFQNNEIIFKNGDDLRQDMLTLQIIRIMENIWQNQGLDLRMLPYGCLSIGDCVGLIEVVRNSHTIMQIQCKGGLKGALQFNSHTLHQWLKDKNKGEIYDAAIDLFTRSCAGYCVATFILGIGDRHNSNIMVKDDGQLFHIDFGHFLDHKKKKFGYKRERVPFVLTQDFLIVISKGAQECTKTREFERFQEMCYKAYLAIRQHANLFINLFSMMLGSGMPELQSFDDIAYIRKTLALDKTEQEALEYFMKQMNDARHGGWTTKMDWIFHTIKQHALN
# Sequence (P27986 whole entry partner): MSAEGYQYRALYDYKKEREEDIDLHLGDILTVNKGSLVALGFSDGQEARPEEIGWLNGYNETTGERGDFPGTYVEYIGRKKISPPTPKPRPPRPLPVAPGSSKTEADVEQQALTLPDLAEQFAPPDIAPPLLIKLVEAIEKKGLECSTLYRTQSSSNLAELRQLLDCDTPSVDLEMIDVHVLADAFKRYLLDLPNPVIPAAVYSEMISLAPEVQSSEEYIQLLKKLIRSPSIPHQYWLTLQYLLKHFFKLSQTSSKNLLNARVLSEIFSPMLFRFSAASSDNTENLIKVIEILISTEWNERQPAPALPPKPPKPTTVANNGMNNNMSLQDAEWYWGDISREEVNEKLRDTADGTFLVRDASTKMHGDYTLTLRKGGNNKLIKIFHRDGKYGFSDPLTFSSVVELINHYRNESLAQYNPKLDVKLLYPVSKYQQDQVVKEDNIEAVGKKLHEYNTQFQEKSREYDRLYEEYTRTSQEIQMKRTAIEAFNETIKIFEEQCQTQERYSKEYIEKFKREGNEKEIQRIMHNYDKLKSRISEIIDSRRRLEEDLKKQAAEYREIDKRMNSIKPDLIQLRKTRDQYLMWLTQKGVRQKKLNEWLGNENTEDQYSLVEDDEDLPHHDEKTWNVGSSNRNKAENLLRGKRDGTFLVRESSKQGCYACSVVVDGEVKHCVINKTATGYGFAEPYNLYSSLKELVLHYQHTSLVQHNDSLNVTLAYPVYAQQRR
# procedure details: PI3Kα cellular assay: pAKT HTRF in T47D cells after EGF stimulation
# Assay type: cell-based
# condition info: T47D cells (PI3Kα H1047R), pAKT S473 HTRF, 1 hr compound, 20 ng/ml EGF 10 min
pIC50: −log10 of the molar value.

{"columns": ["compound", "pIC50"],
 "data": [
  ["Cc1cc([C@@H](C)Nc2ccccc2C(=O)O)c2nc(C3CCC(C)(C)CC3)cc(=O)n2c1 [Compound 623]", "> 7.00"],
  ["Cc1cc(C(C)Nc2ccccc2C(=O)O)c2nc(N3CCS(=O)(=O)CC3)cc(=O)n2c1 (stereo not shown) [Compound 137]", "< 5.70"],
  ["Cc1cc(C(C)Nc2cc(F)ccc2C(=O)O)c2nc(N3CCOCC3)cc(=O)n2c1 (stereo not shown) [Compound 289]", "6.30 to 7.00"],
  ["Cc1cc([C@H](C)Nc2ccccc2C(=O)O)c2cc(-c3ccncn3)cc(=O)n2c1 [Compound 482]", "5.70 to 6.30"],
  ["Cc1cc(C(C)NC2=CC=CCC2C(=O)O)c2nc(Cc3cccc(C4=CCCC=C4)c3)c(C)c(=O)n2c1 (stereo not shown) [Compound 300]", "< 5.70"],
  ["Cc1cc(C(C)Nc2ccccc2C(=O)O)c2nc(Nc3ccc(C(=O)O)cc3)cc(=O)n2c1 (stereo not shown) [Compound 369]", "< 5.70"],
  ["Cc1cc([C@@H](C)Nc2ccccc2C(=O)O)c2nc(Nc3ccc4[nH]c(=O)oc4c3)cc(=O)n2c1 [Compound 546]", "< 5.70"]
]}

* * *

# target or test system: PI3Kα H1047R (T47D cells) (Homo sapiens, UniProt P42336, H1047R)
# Construct: endogenous in cells; host or cells: T47D cells
# procedure details: PI3Kα cellular assay: pAKT HTRF in T47D cells after EGF stimulation
# Format: cell-based
# condition info: T47D cells (PI3Kα H1047R), pAKT S473 HTRF, 1 hr compound, 20 ng/ml EGF 10 min
reported metric: IC50

{"columns": ["molecule", "data value"],
 "data": [
  ["COc1cc(-c2cc(=O)n3cc(C)cc(C(C)Nc4ccccc4C(=O)O)c3n2)cc(S(N)(=O)=O)c1 (stereo not drawn) [Compound 355]", "500 to 2000 nM"],
  ["CC(Nc1ccccc1C(=O)O)c1cc(C(N)=O)cn2c(=O)cc(N3CCOCC3)nc12 (stereo not drawn) [Compound 276]", "< 100 nM"],
  ["Cc1cc([C@H](C)Nc2ccccc2C(=O)O)c2nc(N3Cc4ccccc4C3)cc(=O)n2c1 (single isomer, unassigned) [Compound 393]", "< 100 nM"]
]}

* * *

# target or test system: PI3Kα H1047R (T47D cells) (Homo sapiens, UniProt P42336, H1047R)
# Construct: endogenous in cells; host or cells: T47D cells
# procedure details: PI3Kα cellular assay: pAKT HTRF in T47D cells after EGF stimulation
# Assay type: cell-based
# condition info: selectivity of T47D (H1047R) over SKBR3 (WT) pAKT IC50
reported metric: T47D pAKT S473 HTRF IC50 (H1047R): T47D (H1047R) selectivity over SKBR3 (WT)

{"columns": ["compound", "data value"],
 "data": [
  ["Cc1cc([C@H](C)Nc2ccccc2C(=O)O)c2nc(-c3cc(C)c(F)c(C)c3)cc(=O)n2c1 [Compound 663]", "C (C denotes ≤5-fold)"],
  ["Cc1cc([C@H](C)Nc2ccccc2C(=O)O)c2nc(-c3ccc4c(c3)CC(F)(F)C4)cc(=O)n2c1 [Compound 823]", "C (C denotes ≤5-fold)"],
  ["Cc1cc(C(C)Nc2ccccc2C(=O)O)c2nc(-c3ccc4c(c3)c(=O)[nH]n4C)cc(=O)n2c1 (stereo not shown) [Compound 790]", "C (C denotes ≤5-fold)"],
  ["Cc1cc([C@@H](C)Nc2ccccc2C(=O)O)c2nc(-c3cccc(F)c3)c(C)c(=O)n2c1 (single isomer, unassigned) [Compound 969]", "A (A denotes >20-fold)"],
  ["Cc1cc(C(C)Nc2ccccc2C(=O)O)c2nc(N3C[C@H](C)C[C@H](C(F)F)C3)cc(=O)n2c1 (stereo partly shown) [Compound 781]", "A (A denotes >20-fold)"],
  ["Cc1cc(C(C)Nc2ccccc2C(=O)O)c2nc(-c3ccc4c(C)nn(C)c4c3)cc(=O)n2c1 (stereo not shown) [Compound 818]", "A (A denotes >20-fold)"],
  ["Cc1cc([C@@H](C)Nc2ccccc2-c2ccnnc2)c2nc(N3CC(C)OC(C)C3)cc(=O)n2c1 (stereo partly shown) [Compound 699]", "C (C denotes ≤5-fold)"],
  ["Cc1cc([C@H](C)Nc2ccccc2C(=O)O)c2nc(-c3ccc(C(=O)N(C)C)cc3)cc(=O)n2c1 [Compound 659]", "C (C denotes ≤5-fold)"],
  ["Cc1cc([C@H](C)Nc2cccc3c2CCC(=O)N3)c2nc(N3CCOCC3)cc(=O)n2c1 [Compound 688]", "C (C denotes ≤5-fold)"],
  ["Cc1cc([C@@H](C)Nc2ccccc2C(=O)O)c2nc(-c3ccc4c(c3)c(C)cn4C)cc(=O)n2c1 [Compound 797]", "C (C denotes ≤5-fold)"],
  ["Cc1cc([C@@H](C)Nc2ccccc2C(=O)O)c2nc(-c3ccc4[nH]c(=O)sc4c3)c(C)c(=O)n2c1 [Compound 945]", "A (A denotes >20-fold)"],
  ["Cc1cc([C@H](C)Nc2ccccc2C(=O)O)c2nc(-c3ccc4c(c3)CC(=O)N4)cc(=O)n2c1 [Compound 764]", "A (A denotes >20-fold)"],
  ["Cc1cc([C@H](C)Nc2ccccc2C(=O)O)c2nc(-c3ccc4c(c3)c(N)nn4C)cc(=O)n2c1 [Compound 786]", "C (C denotes ≤5-fold)"],
  ["Cc1cc([C@@H](C)Nc2ccccc2C(=O)O)c2nc(-c3ccc4c(c3)c(C)cn4C)c(C)c(=O)n2c1 (single isomer, unassigned) [Compound 902]", "A (A denotes >20-fold)"],
  ["Cc1cc([C@H](C)Nc2ccccc2C(=O)O)c2nc(N3C[C@@H](C)C(F)(F)[C@@H](C)C3)cc(=O)n2c1 [Compound 712]", "C (C denotes ≤5-fold)"],
  ["Cc1cc([C@@H](C)Nc2ccccc2S(N)(=O)=O)c2nc(-c3ccc4c(c3)c(C)nn4C3CC3)c(C)c(=O)n2c1 [Compound 961]", "A (A denotes >20-fold)"],
  ["CC(Nc1ccccc1C(=O)O)c1cc(C(F)(F)F)cn2c(=O)cc(N3Cc4ccccc4C3)nc12 (stereo not shown) [Compound 922]", "A (A denotes >20-fold)"],
  ["Cc1cc([C@@H](C)Nc2cccc3c2OCC(=O)N3)c2nc(N3CCOCC3)cc(=O)n2c1 [Compound 685]", "C (C denotes ≤5-fold)"],
  ["Cc1cc(C(C)Nc2ccccc2-c2ccnnc2)c2nc(N3Cc4ccccc4C3)cc(=O)n2c1 (stereo not shown) [Compound 665]", "A (A denotes >20-fold)"],
  ["Cc1cc([C@H](C)Nc2ccccc2C(=O)O)c2nc(-n3cnc4cc(O)ccc43)cc(=O)n2c1 [Compound 774]", "C (C denotes ≤5-fold)"],
  ["Cc1cc(C(C)Nc2cccc(C#N)c2C(=O)O)c2nc(-c3ccc4c(c3)c(C)nn4C)cc(=O)n2c1 (stereo not shown) [Compound 981]", "C (C denotes ≤5-fold)"],
  ["Cc1cc([C@H](C)Nc2ccccc2C(=O)O)c2nc(-c3ccc4c(C)cn(C)c4c3)c(C)c(=O)n2c1 [Compound 985]", "C (C denotes ≤5-fold)"],
  ["Cc1cc([C@H](C)N[C@@H]2CCCC[C@@H]2C(=O)O)c2nc(N3CCOCC3)cc(=O)n2c1 [Compound 906]", "C (C denotes ≤5-fold)"],
  ["Cc1cc(C(C)Nc2ccccc2S(N)(=O)=O)c2nc(-c3ccc4c(c3)c(C)nn4C3CC3)c(C)c(=O)n2c1 (stereo not shown) [Compound 944]", "A (A denotes >20-fold)"],
  ["Cc1cc([C@H](C)Nc2ccccc2S(N)(=O)=O)c2nc(-c3cnc4c(c3)c(C)nn4C)c(C)c(=O)n2c1 [Compound 988]", "C (C denotes ≤5-fold)"]
]}

* * *

# target or test system: PI3Kα H1047R (T47D cells) (Homo sapiens, UniProt P42336, H1047R)
# Construct: endogenous in cells; host or cells: T47D cells
# procedure details: PI3Kα cellular assay: pAKT HTRF in T47D cells after EGF stimulation
# Format: cell-based
# condition info: T47D cells (PI3Kα H1047R), pAKT S473 HTRF, EGF stimulation
Each record here notes measured IC50.
reported metric: IC50

{"columns": ["compound", "target or test system", "reported metric", "data value"],
 "data": [
  ["Cc1cc([C@H](C)Nc2ccccc2C(=O)O)c2nc(N3C[C@@H](C)C(F)(F)[C@@H](C)C3)cc(=O)n2c1 [Compound 712]", "PI3Kα H1047R (T47D cells) (Homo sapiens, UniProt P42336, H1047R)", "IC50", "> 2000 nM"],
  ["Cc1cc([C@H](C)Nc2ccccc2S(N)(=O)=O)c2nc(-c3ccc(F)c(C#N)c3)c(C)c(=O)n2c1 [Compound 1032]", "PI3Kα H1047R (T47D cells) (Homo sapiens, UniProt P42336, H1047R)", "IC50", "> 2000 nM"],
  ["Cc1cc(C(C)Nc2ccccc2)c2nc(-c3ccc(F)cc3)c(C)c(=O)n2c1 (centres unmarked) [Compound 1086]", "PI3Kα H1047R (T47D cells) (Homo sapiens, UniProt P42336, H1047R)", "IC50", "> 2000 nM"],
  ["Cc1cc([C@H](C)Nc2ccccc2C(=O)O)c2nc(-c3ccc4c(c3)CC(F)(F)C4)cc(=O)n2c1 [Compound 823]", "PI3Kα H1047R (T47D cells) (Homo sapiens, UniProt P42336, H1047R)", "IC50", "> 2000 nM"],
  ["Cc1cc([C@H](C)N[C@H](C(=O)O)c2ccccc2)c2nc(N3CCOCC3)cc(=O)n2c1 [Compound 650]", "PI3Kα H1047R (T47D cells) (Homo sapiens, UniProt P42336, H1047R)", "IC50", "> 2000 nM"],
  ["Cc1cc([C@H](C)Nc2ccccc2S(N)(=O)=O)c2nc(-c3cnc4c(c3)c(C)cn4C)c(C)c(=O)n2c1 [Compound 1060]", "PI3Kα H1047R (T47D cells) (Homo sapiens, UniProt P42336, H1047R)", "IC50", "> 2000 nM"],
  ["C=CC(=O)Nc1ccc(C(=O)O)c(NC(C)c2cc(C)cn3c(=O)cc(N4Cc5ccccc5C4)nc23)c1 (centres unmarked) [Compound 840]", "PI3Kα H1047R (T47D cells) (Homo sapiens, UniProt P42336, H1047R)", "IC50", "> 2000 nM"],
  ["Cc1cc([C@H](C)NC2=C(C(=O)O)C=CCC2)c2nc(-c3ccc(CC4CCN(C(=O)C5CC5)CC4)nc3)cc(=O)n2c1 [Compound 784]", "PI3Kα H1047R (T47D cells) (Homo sapiens, UniProt P42336, H1047R)", "IC50", "> 2000 nM"],
  ["Cc1cc([C@H](C)Nc2ccccc2C(=O)O)c2nc(-c3ccc(C(=O)N(C)C)cc3)cc(=O)n2c1 [Compound 659]", "PI3Kα H1047R (T47D cells) (Homo sapiens, UniProt P42336, H1047R)", "IC50", "> 2000 nM"],
  ["Cc1cc([C@H](C)Nc2ccccc2C(=O)O)c2nc(N3CC4CC(F)(F)CC4C3)c(C)c(=O)n2c1 (some centres unmarked) [Compound 850]", "PI3Kα H1047R (T47D cells) (Homo sapiens, UniProt P42336, H1047R)", "IC50", "> 2000 nM"],
  ["Cc1cc(C(C)Nc2ccccc2C(=O)O)c2nc(-c3ccc4c(n3)c(C)nn4C)cc(=O)n2c1 (centres unmarked) [Compound 858]", "PI3Kα H1047R (T47D cells) (Homo sapiens, UniProt P42336, H1047R)", "IC50", "100 to 500 nM"],
  ["Cc1cc([C@H](C)Nc2ccccc2-c2ccnnc2)c2nc(N3Cc4ccccc4C3)c(C3CC3)c(=O)n2c1 [Compound 875]", "PI3Kα H1047R (T47D cells) (Homo sapiens, UniProt P42336, H1047R)", "IC50", "< 100 nM"],
  ["CNS(=O)(=O)c1ccccc1NC(C)c1cc(C)cn2c(=O)cc(N3Cc4ccccc4C3)nc12 (centres unmarked) [Compound 835]", "PI3Kα H1047R (T47D cells) (Homo sapiens, UniProt P42336, H1047R)", "IC50", "100 to 500 nM"],
  ["Cc1cc([C@H](C)Nc2ccccc2S(N)(=O)=O)c2nc(-c3ccc(C4CCOCC4)nc3)c(C)c(=O)n2c1 [Compound 1295]", "PI3Kα H1047R (T47D cells) (Homo sapiens, UniProt P42336, H1047R)", "IC50", "< 100 nM"]
]}
